Ref: patent US20250270215A1

- ASSAYED_TARGET: human ALK5 (Homo sapiens (Human))
- Sequence (P36897 80-503 limits assumed): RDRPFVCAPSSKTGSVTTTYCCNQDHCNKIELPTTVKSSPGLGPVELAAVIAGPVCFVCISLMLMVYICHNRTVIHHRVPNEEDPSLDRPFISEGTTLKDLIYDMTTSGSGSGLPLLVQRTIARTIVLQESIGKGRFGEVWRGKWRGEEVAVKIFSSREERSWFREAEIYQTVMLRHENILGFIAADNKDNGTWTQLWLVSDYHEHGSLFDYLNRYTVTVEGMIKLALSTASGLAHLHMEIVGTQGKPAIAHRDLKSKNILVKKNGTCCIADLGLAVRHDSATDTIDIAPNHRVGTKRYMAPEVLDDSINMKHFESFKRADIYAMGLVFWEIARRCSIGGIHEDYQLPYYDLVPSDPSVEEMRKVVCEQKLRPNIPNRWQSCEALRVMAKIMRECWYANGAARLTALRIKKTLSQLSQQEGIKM
- ASSAY_TEXT: ADP-GLO Kinases assay (ALK5 enzymatic activity)
- CONDITION_SUMMARY: purified recombinant human ALK5 2.6 nM, TGFβ1 peptide substrate, 25° C., 150 min incubation, ADP-Glo detection
Entries and their measured IC50 follow.

>  <COMPOUND>
Cc1cccc(-c2nc3n(c2-c2cc4cnccc4s2)CC(CC(=O)O)N3)n1 (stereo not drawn)

>  <IC50>
1 to 5 nM

$$$$
>  <COMPOUND>
Cc1cccc(-c2nc3n(c2-c2ccc4nnsc4c2)CCN3)n1

>  <IC50>
< 1 nM

$$$$
>  <COMPOUND>
Cc1csc(-c2nc3n(c2-c2cc4cnccc4s2)CCN3)n1

>  <IC50>
< 1 nM

$$$$
